Tested on: SR leukemia
Experiment: NCI-60 one-dose screen, 48 h (100 = growth as untreated, 0 = no growth, -100 = all killed)
Settings: 10 µM unless noted
The panel holds about 83,000 compounds, 20% with a hit somewhere; the sample as a whole holds those more often.
# label = True if growth >= 90% else False

Compound	Class Label
O=C(N=Nc1c(Cl)c(O)c2ccccc2c1O)C(=O)Nc1cccc(C(F)(F)F)c1	False
Clc1ccc(Nc2ncnc3c2sc2ncccc23)cc1	False
COc1ccc(/C(=C\c2ccc3c(c2)OCO3)C(=O)Nc2nc3ccccc3s2)cc1	False
c1ccc(C(CC2=NCCCN2)c2ccccc2)cc1	True
CCCc1n(Cc2ccc3ccccc3n2)cc[n+]1Cc1ccc2ccccc2c1	False

Task: Hello, I need to know if OC(c1cc(-c2ccc(C(F)(F)F)cc2)nc(-c2ccc(C(F)(F)F)cc2)c1)C1CCCCN1 (centres undefined) has measured growth not below 90%. Thanks!
Result: False

Task: Hello, I need to know if `Cc1ccc(NC(=O)c2nc(S(C)(=O)=O)oc2-c2ccc(F)cc2)cc1Nc1ccc2ncn(C)c(=O)c2c1` has measured growth not below 90%. Thanks!
Result: False

Task: Hello, I need to know if `COc1ccc(/C(=C\c2cc(OC)c(OC)c(OC)c2)C(=O)N2CCNCC2)cc1` has measured growth not below 90%. Thanks!
Result: True

Task: Hello, I need to know if `COc1cc2nccc(Oc3ccc(NC(=O)C4(C(=O)Nc5ccc(F)cc5)CC4)cc3)c2cc1O` has measured growth not below 90%. Thanks!
Result: False

Task: Hello, I need to know if COC(=O)C1(C)COP(=O)(NC23CC4CC(CC(C4)C2)C3)OC1 (centres undefined) has measured growth not below 90%. Thanks!
Result: True

Task: Hello, I need to know if CCCCN(CCCC)CCC(O)c1cc2ccc(C(F)(F)F)cc2c2cc(C(F)(F)F)ccc12 (centres undefined) has measured growth not below 90%. Thanks!
Result: False

Task: Hello, I need to know if `O=C(O)c1cn(-c2ccccc2)nc1-c1ccc(O)cc1` has measured growth not below 90%. Thanks!
Result: True

Task: Hello, I need to know if `COc1cccc2nc(Nc3cccc(NC(=O)c4cc(N5CCOCC5)cc(C(F)(F)F)c4)c3)ccc12` has measured growth not below 90%. Thanks!
Result: False

----------
System: SR leukemia
Assay: NCI-60 one-dose screen, 48 h (100 = growth as untreated, 0 = no growth, -100 = all killed)
Conditions: 10 µM unless noted
This is part of a sample that, as a whole, favours compounds with a hit. Of some 83,000 tested, about 20% had one in any assay.
Mark Satisfied for growth under 10%, Not satisfied if at or over.

Observe how each entry below is paired with its result.
Molecule	Class Label
C/C(=N\NC(=S)Nc1ccccc1)c1ccccn1	Not satisfied
NC(N)=N/N=C\c1cccc(OCc2ccccc2)c1	Not satisfied
O=C(OCc1ccc2c(Cl)cc(Cl)c(O)c2n1)c1cc2ccccc2[nH]1	Satisfied
CCC(C)C1NC(=O)c2nc(oc2-c2ccccc2)-c2csc(n2)-c2csc(n2)-c2nc(oc2C)-c2coc(n2)CNC(=O)C(C(C)CC)NC1=O (configuration not stated)	Satisfied

Task: hey, is growth for `C#CCNC(=S)N/N=C(\C)c1ccccn1` lower than 10% or not?
Result: Satisfied

Task: hey, is growth for `CCN(C)CCCOc1ccc(/C(=C(\C)Cc2cccc(OC)c2)c2ccc(OC(C)=O)cc2)cc1` lower than 10% or not?
Result: Satisfied

Task: hey, is growth for `CN(C)c1ccc(/C=N/Nc2nnc3n2N=C(c2ccc(Cl)cc2)CS3)cc1` lower than 10% or not?
Result: Not satisfied

----------
Task for the reader: assign each of the following compounds its reported growth.
Test system: NCI-H522 lung
Assay: NCI-60 one-dose screen, 48 h (100 = growth as untreated, 0 = no growth, -100 = all killed)
Details: 10 µM unless noted
The panel holds about 83,000 compounds, 20% with a hit somewhere; the sample as a whole holds those more often.
Answers are plain numbers, in %.

Please state, for each entry, its recorded growth.
1. Cc1ccc(C2CC(c3cccs3)=NN2c2ccc(S(N)(=O)=O)cc2)s1 (stereo not drawn)
2. ClCc1cccc(CSc2ncnc3c2ncn3Cc2cccc(CCl)c2)c1
3. NNC(=O)Cc1ccccc1
4. COc1ccc(C2CC(c3ccc(Nc4ccnc5cc(Cl)ccc45)cc3)=NN2c2ccccc2)cc1 (stereo not drawn)
5. O=C(NNC(=S)Nc1ccccc1)c1ccc(Nc2ncnc3c2cnn3-c2cccc(Br)c2)cc1

Result:
[63.2, -69.8, 77.6, 90.6, 88.6]

Please state, for each entry, its recorded growth.
1. Oc1ccc(-c2cnc(-c3ccccc3)[nH]2)c(O)c1
2. CCOP(=O)(O)OP(=O)(O)OCC
3. CCOc1cccc(/C=N/NC(=O)Cc2ccc(Nc3ccnc(C(F)(F)F)c3)cc2)c1O

Result:
1: 99.8; 2: 82.5; 3: 13.4

Please state, for each entry, its recorded growth.
1. Oc1ccc(Cl)cc1-c1cc(-c2ccccc2Cl)[nH]n1
2. COc1cc(/C=C/c2ccc3c(Br)cc(Br)c(O)c3n2)ccc1O
3. CC(C)c1ccc(Cn2ccc3c4c(N)nc(NC5CC5)nc4ccc32)cc1
4. COc1cc2nccc(Oc3ccc(NC(=O)C4(C(=O)Nc5ccc(F)cc5)CC4)cc3)c2cc1Oc1ccc(N)cn1
5. CC(=O)OC1Oc2cc(C)c(C)cc2-c2oc(=O)c(-c3cc4ccccc4oc3=O)cc21 (stereo not drawn)
6. COc1ccc(NC(=O)c2ccc(C(F)(F)F)nc2Nc2ccc(Cl)cc2C)cc1Cl
7. CCCCCNCCCCCNc1cc(OC)cc2cccnc12

Result:
[27.4, -38.2, -81.8, 51.3, 82.9, 18.9, 89.6]

Please state, for each entry, its recorded growth.
1. CCN(CC)Cc1cc(Nc2ccnc3cc(Cl)ccc23)cc(-c2ccc(Cl)cc2)c1O
2. COC1CC(N)C2OC(c3ccccc3)OCC2O1 (stereo not drawn)
3. COc1ccc2[nH]c(O)c(/C=c3/ccc4c(c3)N=C(c3ccc(F)cc3)N=4)c2c1

Result:
1: 35.3; 2: 98.7; 3: 81

----------
System: SF-539 CNS
Assay: NCI-60 one-dose screen, 48 h (100 = growth as untreated, 0 = no growth, -100 = all killed)
Details: 10 µM unless noted
About 83,000 compounds went through this panel and 20% of them were active in at least one assay; those are over-represented in the sample as a whole.
Mark met for growth under 90%, not met if at or over.

Compound	Class Label
N=C(N)c1ccc(-c2ccc(-c3cc(Cl)cc(Cl)c3)o2)nc1	met
COc1ccc(/C=C2\CCCC3=C2N=C2SC(C)=NN2C3c2ccc(OC)c(OC)c2)cc1OC (stereo unspecified)	met

Task: hey, is growth for `O=C(/C=C/c1cccc([N+](=O)[O-])c1)c1ccc(Nc2nc(N3CCCCC3)nc(N3CCCCC3)n2)cc1` lower than 90% or not?
Result: not met

----------
System: MCF7 breast
Assay: NCI-60 one-dose screen, 48 h
Conditions: 10 µM unless noted
The panel holds about 83,000 compounds, 20% with a hit somewhere; the sample as a whole holds those more often. Activity calls are given as the source filed them. How the source made its calls: active means growth percent below 10; inactive means the rest.
Field 'call' accepts YES = active, NO = inactive

Observe how each entry below is paired with its result.
Molecule	Class Label
C#CC[C@@H]1C[C@]2(C)[C@H]3CC[C@@H]4[C@H]5C(C(=C)C)CC[C@]5(C(=O)NCCCN5CCN(CCCN)CC5)CC[C@@]4(C)[C@]3(C)CC[C@H]2C(C)(C)[C@H]1OC(C)=O (some centres not stated)	YES
Nc1nc(N)c2cc(CNc3ccc(Cl)c(Cl)c3)ccc2n1	YES
Cc1ccc(CSCc2ccc(C(=O)NC3CC3)o2)cc1	NO

API: the following record is the query input.
Task: How did this test come out for `NC(=O)c1noc(C(=O)c2ccccc2)c1N` ?
Result: NO

----------
Tested on: U251 CNS
Test: NCI-60 one-dose screen, 48 h (100 = growth as untreated, 0 = no growth, -100 = all killed)
Conditions: 10 µM unless noted
About 83,000 compounds went through this panel and 20% of them were active in at least one assay; those are over-represented in the sample as a whole.
# label = t if growth >= 50% else f

Observe how each entry below is paired with its result.
Molecule	Class Label
CCc1ccc2c(c1)N(CCO)C1=C(C(=O)OC1)C2c1cccc(Br)c1 (stereo not drawn)	f
Nc1nonc1-c1nc2ccccc2n1Cc1ccc(F)cc1	t
CCN(CC)CCCC(C)Nc1cnc(C(=O)Nc2cccc3ccc(OC)nc23)cn1 (stereo not drawn)	t
O=[N+]([O-])c1cccc([I+]c2ccccc2)c1	t
CCN(CC)CCCC(C)Nc1cnc(C(=O)Nc2cc(C)cc3cccnc23)cn1 (stereo not drawn)	t
Cc1nc2ccc(Nc3nc(Cl)nc(N4CCOCC4)n3)cc2n1Cc1ccccc1	t

Task: Hello, I need to know if CSCCC1NC(=O)C(C(C)=Nc2ccccc2)=C1O (stereo not drawn) has measured growth not below 50%. Thanks!
Result: t

Task: Hello, I need to know if Fc1[nH]nc2ccc([C@@H]3Nc4ccc5[nH]ncc5c4[C@H]4C5CCC(C5)[C@@H]34)cc12 (stereo partly drawn) has measured growth not below 50%. Thanks!
Result: f

Task: Hello, I need to know if `CCN(CC)C(Cl)=Nc1ccc(Cl)cc1` has measured growth not below 50%. Thanks!
Result: t

Task: Hello, I need to know if Cc1ccc(C2CC(c3cccs3)=NN2c2ccc(S(N)(=O)=O)cc2)s1 (stereo not drawn) has measured growth not below 50%. Thanks!
Result: t

Task: Hello, I need to know if `O=C(Nc1cccc(Cl)c1)Nc1cc(C(F)(F)F)ccc1Cl` has measured growth not below 50%. Thanks!
Result: f

Task: Hello, I need to know if `CCOc1ccc([C@@H]2[C@@H](Oc3ccccc3)C(=O)N2c2cc(OC)c(OC)c(OC)c2)cc1` has measured growth not below 50%. Thanks!
Result: f
